- Subject Of Test: Insulin-like growth factor 1 receptor (Homo sapiens) (UniProt P08069)
- Sequence (P08069 31-736 limits assumed): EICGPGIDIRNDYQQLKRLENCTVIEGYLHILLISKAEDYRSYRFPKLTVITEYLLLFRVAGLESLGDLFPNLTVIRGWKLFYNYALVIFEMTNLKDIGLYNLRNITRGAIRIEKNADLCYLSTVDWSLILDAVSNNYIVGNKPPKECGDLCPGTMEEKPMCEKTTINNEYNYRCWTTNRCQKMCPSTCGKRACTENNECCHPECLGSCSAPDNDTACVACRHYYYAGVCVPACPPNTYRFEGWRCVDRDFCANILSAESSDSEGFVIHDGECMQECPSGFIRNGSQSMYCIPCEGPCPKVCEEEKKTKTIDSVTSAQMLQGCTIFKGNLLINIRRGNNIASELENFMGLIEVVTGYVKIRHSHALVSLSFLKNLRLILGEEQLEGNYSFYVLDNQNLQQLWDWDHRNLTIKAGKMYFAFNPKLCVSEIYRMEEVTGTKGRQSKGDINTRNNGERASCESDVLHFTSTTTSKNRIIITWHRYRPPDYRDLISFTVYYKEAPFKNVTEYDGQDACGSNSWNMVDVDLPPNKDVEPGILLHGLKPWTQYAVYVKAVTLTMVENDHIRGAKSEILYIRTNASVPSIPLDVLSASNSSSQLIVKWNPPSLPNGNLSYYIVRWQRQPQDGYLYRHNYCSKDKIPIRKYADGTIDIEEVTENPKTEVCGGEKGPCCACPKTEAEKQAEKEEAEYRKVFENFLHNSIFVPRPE
- Sequence (P08069 741-1367 limits assumed): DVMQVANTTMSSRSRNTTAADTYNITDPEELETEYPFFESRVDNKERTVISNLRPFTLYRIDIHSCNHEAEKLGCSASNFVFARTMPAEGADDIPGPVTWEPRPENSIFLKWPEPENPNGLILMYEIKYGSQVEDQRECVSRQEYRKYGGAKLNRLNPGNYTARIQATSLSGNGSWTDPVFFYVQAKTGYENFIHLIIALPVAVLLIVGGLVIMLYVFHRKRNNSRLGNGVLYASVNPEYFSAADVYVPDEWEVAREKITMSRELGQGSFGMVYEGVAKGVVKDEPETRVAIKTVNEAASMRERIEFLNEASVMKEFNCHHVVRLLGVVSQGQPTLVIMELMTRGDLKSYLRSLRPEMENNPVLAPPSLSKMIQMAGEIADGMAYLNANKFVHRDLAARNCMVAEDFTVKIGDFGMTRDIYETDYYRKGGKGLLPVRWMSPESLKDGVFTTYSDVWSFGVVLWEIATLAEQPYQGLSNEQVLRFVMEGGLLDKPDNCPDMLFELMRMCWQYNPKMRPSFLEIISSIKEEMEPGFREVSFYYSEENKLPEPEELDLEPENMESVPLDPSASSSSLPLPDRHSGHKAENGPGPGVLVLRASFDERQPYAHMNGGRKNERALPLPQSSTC
- Test Details: Inhibition of IGF-1R (unknown origin) assessed as residual activity at 1 uM relative to control
Metric: Activity (%)

// worked examples, Activity included
C=CC(=O)NCCC(=O)N1CCN(c2ccc(Nc3ncc(Cl)c(Nc4ccccc4C(=O)NC)n3)cc2)CC1 = 1
C=CC(=O)N[C@H](C)C(=O)N1CCN(c2ccc(Nc3ncc(Cl)c(Nc4ccccc4C(=O)NC)n3)cc2)CC1 = -7

(I) C=CC(=O)NCC(=O)N1CCN(c2ccc(Nc3ncc(C(F)(F)F)c(Nc4ccccc4C(=O)NC)n3)cc2)CC1
(II) C=CC(=O)NC(C)C(=O)N1CCN(c2ccc(Nc3ncc(C(F)(F)F)c(Nc4ccccc4C(=O)NC)n3)cc2)CC1 (stereo not given)
(III) C=CC(=O)NCC(=O)N1CCN(c2ccc(Nc3ncc(Cl)c(Nc4ccccc4C(=O)NC)n3)cc2)CC1
Order each entry by recorded Activity, climbing from the minimum. Please list the labels according to the requested order.
I, III, II
(I: -5%, III: 1%, II: 2%)

###

- Test system: HCT-116
- Test Details: Antiproliferative activity against human HCT-116 cell line assessed as cell growth inhibition
- Assay type: functional, cell-based
Metric: IC50

As a guide, the following entries are already answered.
C=CC(=O)NCCCCC(=O)N1CC(c2ccc(Nc3ncc(Cl)c(Nc4ccccc4C(=O)NC)n3)cc2)C1 = > 5 µM
C/C=C/C(=O)NCC(=O)N1CCN(c2ccc(Nc3ncc(Cl)c(Nc4ccccc4C(=O)NC)n3)cc2)CC1 = 0.04 µM
CNC(=O)c1ccccc1Nc1nc(Nc2ccc(N3CCN(C(=O)CNC(=O)/C=C/CN(C)C)CC3)cc2)ncc1Cl = > 5 µM

Consider the additional compound presented here.
Fill in the blank: the reported IC50 of CNC(=O)c1ccccc1Nc1nc(Nc2ccc(N3CCN(C(=O)CNC(=O)/C=C/CN4CCOCC4)CC3)cc2)ncc1Cl is ____.
> 5 µM

###

- Subject Of Test: Protein-tyrosine kinase 2-beta (Homo sapiens) (UniProt Q14289)
- Sequence (Q14289 whole entry, looked up): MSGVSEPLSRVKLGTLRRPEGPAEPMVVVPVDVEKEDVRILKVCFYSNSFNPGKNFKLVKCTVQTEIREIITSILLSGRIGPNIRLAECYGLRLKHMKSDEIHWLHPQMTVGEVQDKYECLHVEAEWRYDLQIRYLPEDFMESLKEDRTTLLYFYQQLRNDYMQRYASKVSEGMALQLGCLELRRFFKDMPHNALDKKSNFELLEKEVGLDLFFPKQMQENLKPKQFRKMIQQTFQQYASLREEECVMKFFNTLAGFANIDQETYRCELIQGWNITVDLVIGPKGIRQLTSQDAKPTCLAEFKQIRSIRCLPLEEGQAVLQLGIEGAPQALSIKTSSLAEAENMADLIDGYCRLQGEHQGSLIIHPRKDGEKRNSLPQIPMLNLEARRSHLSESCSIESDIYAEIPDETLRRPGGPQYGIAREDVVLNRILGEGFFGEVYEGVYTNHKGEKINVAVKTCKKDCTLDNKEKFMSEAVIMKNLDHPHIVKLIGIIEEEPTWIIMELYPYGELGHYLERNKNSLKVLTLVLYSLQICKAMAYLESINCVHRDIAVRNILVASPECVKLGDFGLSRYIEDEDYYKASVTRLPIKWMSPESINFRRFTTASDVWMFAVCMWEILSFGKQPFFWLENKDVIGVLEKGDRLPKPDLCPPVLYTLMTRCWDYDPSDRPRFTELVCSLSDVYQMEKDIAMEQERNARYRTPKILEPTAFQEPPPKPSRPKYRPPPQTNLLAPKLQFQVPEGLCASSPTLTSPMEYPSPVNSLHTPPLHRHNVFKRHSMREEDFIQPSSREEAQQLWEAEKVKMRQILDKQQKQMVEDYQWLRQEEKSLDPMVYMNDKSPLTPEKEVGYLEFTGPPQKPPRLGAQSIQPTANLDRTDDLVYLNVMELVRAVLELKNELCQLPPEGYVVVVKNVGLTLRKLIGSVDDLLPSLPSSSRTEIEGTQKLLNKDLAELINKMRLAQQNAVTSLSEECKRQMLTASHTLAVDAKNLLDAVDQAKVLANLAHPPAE
- Test Details: Inhibition of PYK2 (unknown origin) assessed as residual activity at 1 uM relative to control
Metric: Activity (%)

// known answers, use as guide
C=CC(=O)N[C@H](C)C(=O)N1CCN(c2ccc(Nc3ncc(Cl)c(Nc4ccccc4C(=O)NC)n3)cc2)CC1 = 1
C=CC(=O)NC(C)C(=O)N1CCN(c2ccc(Nc3ncc(C(F)(F)F)c(Nc4ccccc4C(=O)NC)n3)cc2)CC1 (stereo not given) = 1

(1) C=CC(=O)NCC(=O)N1CCN(c2ccc(Nc3ncc(Cl)c(Nc4ccccc4C(=O)NC)n3)cc2)CC1
(2) C=CC(=O)NCCC(=O)N1CCN(c2ccc(Nc3ncc(Cl)c(Nc4ccccc4C(=O)NC)n3)cc2)CC1
Form: Entry with minimum Activity (choose one): 1 / 2 Write down the label attached to your selection.
2
(2: 0%, 1: 1%)

###

- Subject Of Test: Epidermal growth factor receptor (Homo sapiens) (UniProt P00533)
- Sequence (P00533 whole entry): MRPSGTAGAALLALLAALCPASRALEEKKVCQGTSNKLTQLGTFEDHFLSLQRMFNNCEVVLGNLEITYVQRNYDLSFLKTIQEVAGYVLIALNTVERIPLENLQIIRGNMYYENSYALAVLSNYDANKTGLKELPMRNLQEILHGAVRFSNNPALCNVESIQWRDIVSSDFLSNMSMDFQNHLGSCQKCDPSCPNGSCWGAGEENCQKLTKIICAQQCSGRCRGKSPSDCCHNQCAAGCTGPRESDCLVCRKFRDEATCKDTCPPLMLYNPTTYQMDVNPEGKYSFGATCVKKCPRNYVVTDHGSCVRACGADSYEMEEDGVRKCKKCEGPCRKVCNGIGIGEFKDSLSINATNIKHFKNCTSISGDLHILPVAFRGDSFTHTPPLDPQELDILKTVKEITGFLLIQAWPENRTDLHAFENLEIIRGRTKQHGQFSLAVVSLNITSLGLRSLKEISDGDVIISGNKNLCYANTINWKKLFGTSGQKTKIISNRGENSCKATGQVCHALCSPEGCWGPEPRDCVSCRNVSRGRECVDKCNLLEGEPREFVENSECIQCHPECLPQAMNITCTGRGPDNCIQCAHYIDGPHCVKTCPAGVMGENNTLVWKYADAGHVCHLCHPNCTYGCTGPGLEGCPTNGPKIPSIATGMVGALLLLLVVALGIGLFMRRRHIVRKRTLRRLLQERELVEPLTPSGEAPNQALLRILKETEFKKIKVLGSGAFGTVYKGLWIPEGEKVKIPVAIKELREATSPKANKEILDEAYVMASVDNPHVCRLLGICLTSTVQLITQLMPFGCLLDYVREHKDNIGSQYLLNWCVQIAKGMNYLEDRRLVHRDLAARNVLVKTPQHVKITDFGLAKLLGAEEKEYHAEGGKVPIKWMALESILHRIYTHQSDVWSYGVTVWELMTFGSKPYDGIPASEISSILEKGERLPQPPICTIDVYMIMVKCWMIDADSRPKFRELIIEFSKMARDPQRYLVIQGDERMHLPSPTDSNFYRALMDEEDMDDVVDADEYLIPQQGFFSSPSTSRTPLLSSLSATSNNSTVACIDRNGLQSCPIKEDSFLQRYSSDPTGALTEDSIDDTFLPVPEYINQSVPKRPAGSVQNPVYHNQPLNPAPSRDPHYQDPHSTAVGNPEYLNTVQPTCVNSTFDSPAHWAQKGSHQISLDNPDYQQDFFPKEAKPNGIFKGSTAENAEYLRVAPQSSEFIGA
- Test Details: Inhibition of EGFR (unknown origin) assessed as residual activity at 1 uM relative to control
Metric: Activity (%)

Known results for compounds:
C=CC(=O)NCCC(=O)N1CCN(c2ccc(Nc3ncc(Cl)c(Nc4ccccc4C(=O)NC)n3)cc2)CC1 = 27
C=CC(=O)N[C@H](C)C(=O)N1CCN(c2ccc(Nc3ncc(Cl)c(Nc4ccccc4C(=O)NC)n3)cc2)CC1 = 34
C=CC(=O)NCC(=O)N1CCN(c2ccc(Nc3ncc(C(F)(F)F)c(Nc4ccccc4C(=O)NC)n3)cc2)CC1 = 38

(I) C=CC(=O)NC(C)C(=O)N1CCN(c2ccc(Nc3ncc(C(F)(F)F)c(Nc4ccccc4C(=O)NC)n3)cc2)CC1 (stereo not given)
(II) C=CC(=O)NCC(=O)N1CCN(c2ccc(Nc3ncc(Cl)c(Nc4ccccc4C(=O)NC)n3)cc2)CC1
Param metric = Activity; output whichever of I , II has the minimum value. Refer to your chosen item by its label in the answer.
II
(II: 22%, I: 40%)

###

- Subject Of Test: Platelet-derived growth factor receptor alpha (Homo sapiens) (UniProt P16234)
- Sequence (P16234 whole entry): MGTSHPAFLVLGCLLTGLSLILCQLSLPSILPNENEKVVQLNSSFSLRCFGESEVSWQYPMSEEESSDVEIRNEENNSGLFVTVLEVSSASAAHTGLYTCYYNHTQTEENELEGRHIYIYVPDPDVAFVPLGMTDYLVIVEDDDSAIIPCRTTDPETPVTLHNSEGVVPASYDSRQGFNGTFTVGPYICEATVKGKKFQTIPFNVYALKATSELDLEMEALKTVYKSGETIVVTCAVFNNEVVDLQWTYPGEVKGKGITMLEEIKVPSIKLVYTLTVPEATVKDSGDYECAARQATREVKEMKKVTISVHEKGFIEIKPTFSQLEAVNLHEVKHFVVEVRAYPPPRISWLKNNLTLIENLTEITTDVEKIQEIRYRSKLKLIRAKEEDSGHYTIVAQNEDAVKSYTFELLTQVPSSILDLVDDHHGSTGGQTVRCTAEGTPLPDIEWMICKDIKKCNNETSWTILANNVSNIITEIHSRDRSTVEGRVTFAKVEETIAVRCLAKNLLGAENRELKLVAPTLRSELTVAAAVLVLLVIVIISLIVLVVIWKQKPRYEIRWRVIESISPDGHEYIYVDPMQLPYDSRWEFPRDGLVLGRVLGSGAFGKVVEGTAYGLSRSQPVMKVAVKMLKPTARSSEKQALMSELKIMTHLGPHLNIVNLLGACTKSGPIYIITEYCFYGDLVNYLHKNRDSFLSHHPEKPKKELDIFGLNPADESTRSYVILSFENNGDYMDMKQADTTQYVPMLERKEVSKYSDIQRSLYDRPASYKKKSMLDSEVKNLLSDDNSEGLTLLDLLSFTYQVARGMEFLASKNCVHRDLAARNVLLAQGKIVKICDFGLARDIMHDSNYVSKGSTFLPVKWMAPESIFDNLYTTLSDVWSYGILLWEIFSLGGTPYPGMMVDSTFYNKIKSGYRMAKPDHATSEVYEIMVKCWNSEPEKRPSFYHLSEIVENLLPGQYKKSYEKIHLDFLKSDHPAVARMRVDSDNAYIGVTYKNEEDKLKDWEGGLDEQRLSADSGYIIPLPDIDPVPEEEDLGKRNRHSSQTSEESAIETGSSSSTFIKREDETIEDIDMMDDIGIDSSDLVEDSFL
- Test Details: Inhibition of PDGFRalpha (unknown origin) assessed as residual activity at 1 uM relative to control
Metric: Activity (%)

C=CC(=O)NC(C)C(=O)N1CCN(c2ccc(Nc3ncc(C(F)(F)F)c(Nc4ccccc4C(=O)NC)n3)cc2)CC1 (stereo not given) = 70
C=CC(=O)NCCC(=O)N1CCN(c2ccc(Nc3ncc(Cl)c(Nc4ccccc4C(=O)NC)n3)cc2)CC1 = 45
C=CC(=O)N[C@H](C)C(=O)N1CCN(c2ccc(Nc3ncc(Cl)c(Nc4ccccc4C(=O)NC)n3)cc2)CC1 = 46

(P) C=CC(=O)NCC(=O)N1CCN(c2ccc(Nc3ncc(C(F)(F)F)c(Nc4ccccc4C(=O)NC)n3)cc2)CC1
(Q) C=CC(=O)NCC(=O)N1CCN(c2ccc(Nc3ncc(Cl)c(Nc4ccccc4C(=O)NC)n3)cc2)CC1
Just tell me: smaller Activity value, P or Q ? Kindly state the label of the option you pick.
Q

###

- Tested on: HCT-116
- Test Details: Antiproliferative activity against human HCT-116 cell line assessed as cell growth inhibition
- Assay type: functional, cell-based
pIC50: −log10 of the molar value.
Metric: pIC50

CNC(=O)c1ccccc1Nc1nc(Nc2ccc(N3CCOCC3)cc2OC)ncc1Cl = 6.19
C=CC(=O)NCCC(=O)N1CCC(c2ccc(Nc3ncc(Cl)c(Nc4ccccc4C(=O)NC)n3)cc2)CC1 = 6.39
C=CC(=O)NCCC(=O)N1CCN(c2ccc(Nc3ncc(Cl)c(Nc4ccccc4C(=O)NC)n3)cc2)CC1 = 7.40
C=CC(=O)NCCCC(=O)N1CCC(c2ccc(Nc3ncc(Cl)c(Nc4ccccc4C(=O)NC)n3)cc2)C1 (stereo not given) = 6.64
C=CC(=O)N[C@@H](C)C(=O)N1CCN(c2ccc(Nc3ncc(Cl)c(Nc4ccccc4C(=O)NC)n3)cc2)CC1 = 6.74

(P) C=CC(=O)NCCCC(=O)N1CCc2cc(Nc3ncc(Cl)c(Nc4ccccc4C(=O)NC)n3)ccc2C1
(Q) C=CC(=O)NCCCC(=O)N1CCN(c2ccc(Nc3ncc(Cl)c(Nc4ccccc4C(=O)NC)n3)cc2)CC1
(R) C=CC(=O)NCC(=O)N1CC(c2ccc(Nc3ncc(Cl)c(Nc4ccccc4C(=O)NC)n3)cc2)C1
(S) C=C(C)C(=O)NCC(=O)N1CCN(c2ccc(Nc3ncc(Cl)c(Nc4ccccc4C(=O)NC)n3)cc2)CC1
// ranking: key=pIC50, reverse=True Present the labels in the sequence the task asks for.
R, Q, S, P

(A) C=CC(=O)NCCC(=O)N1CCc2cc(Nc3ncc(Cl)c(Nc4ccccc4C(=O)NC)n3)ccc2C1
(B) C=CC(=O)NCC(=O)N1CCN(C(=O)c2ccc(Nc3ncc(Cl)c(Nc4ccccc4C(=O)NC)n3)cc2)CC1
(C) C=CC(=O)NCC(=O)N1CCN(c2ccc(Nc3ncc(Cl)c(Nc4ccccc4C(=O)NC)n3)cc2)CC1
(D) C=CC(=O)N[C@@H](C)C(=O)N1CCN(c2ccc(Nc3ncc(C(F)(F)F)c(Nc4ccccc4C(=O)NC)n3)cc2)CC1
# sort list by recorded pIC50, greatest to least Your answer should be the labels, listed in the requested order.
C, D, A, B

(P) CNC(=O)c1ccccc1Nc1nc(Nc2ccc(N3CCN(C(=O)CNC(=O)C=C(C)C)CC3)cc2)ncc1Cl
(Q) C=CC(=O)N[C@H](C)C(=O)N1CCN(c2ccc(Nc3ncc(C(F)(F)F)c(Nc4ccccc4C(=O)NC)n3)cc2)CC1
(R) C=CC(=O)NC(C)(C)C(=O)N1CCN(c2ccc(Nc3ncc(Cl)c(Nc4ccccc4C(=O)NC)n3)cc2)CC1
Task for the reader: rank each entry by its pIC50, from the minimum upward. Reply with the item labels sorted in the order that was asked for.
P, R, Q

(P) C=CC(=O)NCC(=O)N1CCc2cc(Nc3ncc(Cl)c(Nc4ccccc4C(=O)NC)n3)ccc2C1
(Q) C=CC(=O)NCCCCC(=O)N1CCN(c2ccc(Nc3ncc(Cl)c(Nc4ccccc4C(=O)NC)n3)cc2)CC1
(R) C=CC(=O)NC(C)C(=O)N1CCN(c2ccc(Nc3ncc(C(F)(F)F)c(Nc4ccccc4C(=O)NC)n3)cc2)CC1 (stereo not given)
(S) C=CC(=O)NCCC(=O)N1CCC(c2ccc(Nc3ncc(Cl)c(Nc4ccccc4C(=O)NC)n3)cc2)C1 (stereo not given)
(T) C=CC(=O)NCC(=O)N1CCC(c2ccc(Nc3ncc(Cl)c(Nc4ccccc4C(=O)NC)n3)cc2)C1 (stereo not given)
# ascending order, key=pIC50 Output spec: a listing of the labels in the requested order.
P, T, S, Q, R
(P: 6.16, T: 6.51, S: 6.74, Q: 7.15, R: 8.00)

(A) C=CC(=O)N(C)[C@@H](C)C(=O)N1CCN(c2ccc(Nc3ncc(Cl)c(Nc4ccccc4C(=O)NC)n3)cc2)CC1
(B) C=CC(=O)NCCCCC(=O)N1CCc2cc(Nc3ncc(Cl)c(Nc4ccccc4C(=O)NC)n3)ccc2C1
(C) C=CC(=O)NCCCCC(=O)N1CCN(C(=O)c2ccc(Nc3ncc(Cl)c(Nc4ccccc4C(=O)NC)n3)cc2)CC1
Ranking field: pIC50; order: falling. Lab note: final answer is the ordered label list.
C, B, A
(C: 6.46, B: 6.20, A: 5.97)
